# Tested on: NCI-H322M lung
# protocolNotes: NCI-60 one-dose screen, 48 h (100 = growth as untreated, 0 = no growth, -100 = all killed)
# protocolConditions: 10 µM unless noted
The panel holds about 83,000 compounds, 20% with a hit somewhere; the sample as a whole holds those more often.
// classify(record): look up growth in ranges band A = under 60%, band B = from 60% up to 90%, band C = 90% and over

| molecule | categoryLabel |
| --- | --- |
| NC(CCc1nc2ccccc2c(=O)[nH]1)C(=O)O (configuration not stated) | band C |
| COc1ccc(/C=C/C(=O)c2ccc3cc(OC)c(OC)cc3c2)cc1OC | band A |
| CCOc1ccc2nc(C)cc(Nc3ccc(Br)cc3)c2c1 | band C |

Query: Where would `O=C1N=c2ccccc2=C1c1sc(=Nc2ccccc2)n(Nc2ccccc2)c1O` land among the classes by reported growth?
Response: band C

Query: Where would `COc1ccc(CSc2nnc(SCC(=O)Nc3ccc(Cl)cc3)s2)cc1` land among the classes by reported growth?
Response: band B

Query: Where would `Nc1ccccc1-c1ccc(-c2ccc(Cl)cc2)c2c1[nH]c1ccccc12` land among the classes by reported growth?
Response: band B

Query: Where would `COc1cc(/C=C2\Oc3cc(OCCCN4CCCC4)ccc3C2=O)cc(OC)c1` land among the classes by reported growth?
Response: band B

Query: Where would `O=c1oc2ccc(Br)cc2c(=O)n1-c1ccc(Cl)cc1F` land among the classes by reported growth?
Response: band A

Query: Where would CS(=O)(=O)Nc1ccc(C(=O)NC(C(=O)NO)c2ccc(-c3cccc(F)c3)cc2)cc1 (configuration not stated) land among the classes by reported growth?
Response: band A

Query: Where would `O=c1oc2ccc(Cl)cc2c(=O)n1-c1ccc(Cl)cc1F` land among the classes by reported growth?
Response: band A
